meta.source: patent US20240174634A1

Target: ALDH1A3 (Homo sapiens, UniProt P47895)
Sequence (P47895 1-512): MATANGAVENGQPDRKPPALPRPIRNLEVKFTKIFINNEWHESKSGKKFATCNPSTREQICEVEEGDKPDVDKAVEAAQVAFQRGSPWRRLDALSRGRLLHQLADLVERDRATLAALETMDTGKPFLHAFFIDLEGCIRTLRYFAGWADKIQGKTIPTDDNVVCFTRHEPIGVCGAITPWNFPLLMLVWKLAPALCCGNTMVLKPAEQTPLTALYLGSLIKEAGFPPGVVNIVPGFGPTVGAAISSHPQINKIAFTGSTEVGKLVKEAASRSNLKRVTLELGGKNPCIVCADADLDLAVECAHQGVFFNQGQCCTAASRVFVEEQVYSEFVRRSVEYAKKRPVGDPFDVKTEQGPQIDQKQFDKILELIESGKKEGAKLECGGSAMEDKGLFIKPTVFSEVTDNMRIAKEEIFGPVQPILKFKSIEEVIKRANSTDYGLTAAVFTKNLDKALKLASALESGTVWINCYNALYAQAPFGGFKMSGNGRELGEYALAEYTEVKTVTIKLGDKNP
Experiment: ALDH1A3 cellular assay (ALDEFLUOR) in WM266.4 melanoma cells
Type: cell-based
Details: WM266.4 cells; 60 min incubation; percentage of ALDH-positive cells
IC50 values by entry

O=C1CCc2cc(OCCN3CCC[C@H]3c3cccc(F)c3)ccc2N1 [ALDHI-2018] | < 100 nM
CN(CCOc1ccc2c(c1)CCC(=O)N2)Cc1cccnc1 [ALDHI-3010] | 100 to 1000 nM
O=C1CSc2cc(OCCN3CCCC3c3ccccn3)ccc2N1 (stereo not drawn) [ALDHI-2027] | 1000 to 10000 nM
O=C1CCc2cc(OCCN3CCCC3c3ccccn3)ccc2N1 (stereo not drawn) [ALDHI-2006] | 1000 to 10000 nM
C[C@@H](c1ccccc1)N(CCO)CCOc1ccc2c(c1)CCC(=O)N2 [ALDHI-3007] | 100 to 1000 nM
O=c1ccc2cc(OCCN3CCCC3c3cccc(F)c3)ccc2[nH]1 (stereo not drawn) [ALDHI-2022] | 100 to 1000 nM

Item CC1(c2cccc(F)c2)CCCN1CCOc1ccc2c(c1)CCC(=O)N2 (stereo not drawn) [ALDHI-2037] with ALDH1A3 (Homo sapiens, UniProt P47895) - IC50?
< 100 nM

Item CCn1cc(C2CCCN2CCOc2ccc3c(c2)CCC(=O)N3)cn1 (stereo not drawn) [ALDHI-2016] with ALDH1A3 (Homo sapiens, UniProt P47895) - IC50?
1000 to 10000 nM

Item O=C1CCc2cc(OCCN3CCOCC3c3cccc(F)c3)ccc2N1 (stereo not drawn) [ALDHI-2031] with ALDH1A3 (Homo sapiens, UniProt P47895) - IC50?
< 100 nM
